Values from ChEMBL document CHEMBL1135166

# system: Endothelin-converting enzyme 1 (Homo sapiens)
# Sequence (P42892 whole entry): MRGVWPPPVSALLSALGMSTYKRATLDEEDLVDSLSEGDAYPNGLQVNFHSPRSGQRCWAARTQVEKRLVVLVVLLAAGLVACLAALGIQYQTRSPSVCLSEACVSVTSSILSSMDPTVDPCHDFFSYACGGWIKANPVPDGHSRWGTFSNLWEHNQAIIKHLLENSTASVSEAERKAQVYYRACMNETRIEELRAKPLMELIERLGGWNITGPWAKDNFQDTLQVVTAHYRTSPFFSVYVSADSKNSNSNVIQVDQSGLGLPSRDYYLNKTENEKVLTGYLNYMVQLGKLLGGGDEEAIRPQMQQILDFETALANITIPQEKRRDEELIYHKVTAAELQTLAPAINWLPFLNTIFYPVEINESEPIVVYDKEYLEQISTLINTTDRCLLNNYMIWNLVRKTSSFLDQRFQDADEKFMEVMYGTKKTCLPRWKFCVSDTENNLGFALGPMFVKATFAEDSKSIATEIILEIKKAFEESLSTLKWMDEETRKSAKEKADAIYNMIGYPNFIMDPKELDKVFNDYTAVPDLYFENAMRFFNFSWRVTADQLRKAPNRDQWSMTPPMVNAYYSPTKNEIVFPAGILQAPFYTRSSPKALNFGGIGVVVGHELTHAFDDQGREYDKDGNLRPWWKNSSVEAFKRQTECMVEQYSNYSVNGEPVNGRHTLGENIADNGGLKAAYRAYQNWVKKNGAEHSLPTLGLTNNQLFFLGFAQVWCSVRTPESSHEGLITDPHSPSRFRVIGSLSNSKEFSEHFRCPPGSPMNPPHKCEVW
The entries below come with measured pIC50 values attached.
// pIC50: -log10(molar conc.)

1) CC(C)CSc1nnc([C@@H]2C[C@@H](S)CN2S(=O)(=O)c2ccc3ccccc3c2)n1-c1ccccc1	6.14
2) CSc1nnc([C@@H]2C[C@@H](S)CN2S(=O)(=O)c2ccc(C(F)(F)F)cc2)n1-c1ccccc1	5.89

Input: Give its pIC50 value. Item: `CSc1nnc([C@@H]2C[C@@H](S)CN2S(=O)(=O)c2ccc3ccccc3c2)n1-c1ccc(F)c(Cl)c1`
Output: 5.92
